Test Target: Desmoglein-3 (Homo sapiens)
Experiment: blockers of anti-DSG3 scFv binding – biochemical, bead-based, flow cytometry, scFv-GFP, primary screen (AID 588358);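 also: hits lower antibody fragment binding to DSG3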
Test Context: DSG3-coupled beads, at 10 µM
Out of some 310,000 compounds screened, about 1,500 (0.48%) were called active.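 The calls were made as follows: active = binding more than 3 SD below its plate's average and above zero; inconclusive = below that plate limit but binding exactly zero; inactive = the rest.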 What follows is part of a selection rich in actives, with near analogues and random picks from the rest.
Pick from Yes = active, No = inactive when you respond.

[Q] Which outcome did this test record for the compound CC(OC(=O)c1cccc(S(=O)(=O)N2CCOCC2)c1)C(=O)NCC1CCCCC1 (stereo not given) ?
[A] No

[Q] Fill in: this test's call for `COc1ccc(NC(=O)[C@H](NC(=O)[C@@H]2Cc3ccccc3CN2)c2ccccc2)cc1` is ___
[A] No

[Q] # outcome recorded in this test, key = CC1(C)OC(=O)C2=C(CC(c3ccccc3)OC2CCc2ccccc2)O1 (stereo not given)
[A] No

[Q] Give the logged outcome of this assay for the following compound: `Cc1ccc(S(=O)(=O)c2nc(NCCCn3ccnc3)sc2Cl)cc1`
[A] No

[Q] Could you please tell me the result logged for `COc1ccc(CCNC(=O)/C(C#N)=C2\N=C(NC(=O)c3cccs3)c3ccccc32)cc1` in this assay?
[A] Yes

[Q] Hi, do you know how `Cc1ccc(-c2nc(C#N)c(NCCCn3ccnc3)o2)cc1` came out in this test?
[A] Yes

[Q] What is the recorded call for this compound in the test? Cc1ccnc(SC2CC(=O)N(c3ccccc3)C2=O)n1 (stereo not given)
[A] No

[Q] Please indicate how the test categorized CCCCN(C(C)=O)c1ccc2c(c1)C1CC2CCN1Cc1ccccc1 (stereo not given) .
[A] No

[Q] Status in this test for `Cc1cccc(C)c1NC(=O)CNC(=O)c1ccc(N2CCOCC2)c([N+](=O)[O-])c1` ?
[A] No

[Q] Each compound tested received a call. Report the one for `COc1cccc(NC(=O)[C@H](Cc2c[nH]c3ccccc23)NC(=O)[C@@H]2Cc3ccccc3CN2)c1` .
[A] Yes

====

Test Target: Desmoglein-3 (Homo sapiens) (UniProt P32926)
Sequence (P32926 whole entry, looked up, the tested form may be a part): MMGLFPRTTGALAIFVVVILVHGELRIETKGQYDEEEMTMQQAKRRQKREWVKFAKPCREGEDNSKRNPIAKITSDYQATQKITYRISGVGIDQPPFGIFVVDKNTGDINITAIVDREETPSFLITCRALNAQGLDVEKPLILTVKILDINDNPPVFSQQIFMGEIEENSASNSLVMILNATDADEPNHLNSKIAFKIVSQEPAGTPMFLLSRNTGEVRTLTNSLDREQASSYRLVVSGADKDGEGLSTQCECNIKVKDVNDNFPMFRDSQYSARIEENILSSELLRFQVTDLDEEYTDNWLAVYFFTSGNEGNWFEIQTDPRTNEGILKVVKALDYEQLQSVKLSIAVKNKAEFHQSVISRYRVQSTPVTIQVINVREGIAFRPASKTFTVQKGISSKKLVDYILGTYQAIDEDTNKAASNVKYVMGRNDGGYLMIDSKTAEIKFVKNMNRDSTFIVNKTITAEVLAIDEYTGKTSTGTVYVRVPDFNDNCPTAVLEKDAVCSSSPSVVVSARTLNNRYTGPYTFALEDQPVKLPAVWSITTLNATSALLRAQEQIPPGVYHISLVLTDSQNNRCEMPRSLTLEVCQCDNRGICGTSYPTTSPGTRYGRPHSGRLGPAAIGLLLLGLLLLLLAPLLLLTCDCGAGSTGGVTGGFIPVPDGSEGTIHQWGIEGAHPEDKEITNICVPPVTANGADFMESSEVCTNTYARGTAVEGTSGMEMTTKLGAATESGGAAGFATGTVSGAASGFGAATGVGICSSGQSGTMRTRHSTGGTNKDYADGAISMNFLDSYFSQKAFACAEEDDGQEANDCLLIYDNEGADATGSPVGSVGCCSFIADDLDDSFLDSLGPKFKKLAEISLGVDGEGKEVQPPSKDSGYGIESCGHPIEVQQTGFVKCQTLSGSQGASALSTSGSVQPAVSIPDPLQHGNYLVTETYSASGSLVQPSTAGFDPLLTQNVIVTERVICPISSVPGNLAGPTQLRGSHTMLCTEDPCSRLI
Experiment: blockers of anti-DSG3 scFv binding – biochemical, bead-based, flow cytometry, scFv-GFP, primary screen (AID 588358);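 also: hits lower antibody fragment binding to DSG3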
Test Context: DSG3-coupled beads, at 10 µM, hits give low values
Screen size: about 310,000 compounds; about 1,500 (0.48%) were called active. Shown is part of a subset that was picked to be rich in actives.
Task for the reader: assign each of the following compounds its reported binding (percent of control).

[Q] Field request: binding (percent of control) | item: `O=C(O)c1cc2ccccc2c(=O)s1`
[A] 53.2% (active)

[Q] Name the reported binding (percent of control) value associated with the compound CCC(O)C1CCN(Cc2cn(-c3ccc(OC)cc3)nc2-c2cccc(F)c2)CC1 (configuration not stated)
[A] 110% (inactive)

[Q] Consider the compound shown here: `Nc1nc(SCC(=O)N2CCN(S(=O)(=O)c3ccc(Cl)cc3)CC2)n[nH]1` What is its recorded binding (percent of control)?
[A] 104% (inactive)

[Q] Request the reported binding (percent of control) associated with Cc1ccc(C(=O)NC(C)C(c2cccs2)N2CCOCC2)cc1C (configuration not stated)
[A] 92.7% (inactive)

[Q] // returns reported binding (percent of control) for input `O=[N+]([O-])c1ccc(N=NNc2ccc([N+](=O)[O-])cc2)cc1`
[A] 44.4% (active)

[Q] Would you mind telling me what binding (percent of control) value was observed for `COc1cccc(/C=N/NC(=O)C(=O)N2CCCC2)c1` ?
[A] 102% (inactive)

[Q] Quick check: binding (percent of control) of `COc1ccc(-n2cc(CNC3CCOCC3)c(-c3cccc(F)c3)n2)cc1` ?
[A] 21.8% (active)

[Q] Find the recorded binding (percent of control) belonging to CC(C)c1ccc(NC(=O)C2CCCN(S(=O)(=O)c3cccnc3)C2)cc1 (configuration not stated) and report it.
[A] -3.9% (active)

[Q] Need binding (percent of control), item CN(C(=O)COC(=O)c1cc(-c2ccco2)nc2ccccc12)C1CCS(=O)(=O)C1 (configuration not stated)
[A] 59.4% (active)

[Q] Query (compound): `O=C(CSc1ccccn1)N1CCN(S(=O)(=O)c2ccc(Cl)cc2)CC1` ; field requested: binding (percent of control)
[A] 96.2% (inactive)

[Q] Any idea what its binding (percent of control) is? The compound is `COC(=O)c1ccccc1N=NNc1ccc([N+](=O)[O-])cc1`
[A] 104% (inactive)

[Q] Which binding (percent of control) is reported for this compound? `CCOC(=O)c1c(C)[nH]c(C)c1C(=O)COC(=O)/C=C/c1cccc([N+](=O)[O-])c1`
[A] 98.5% (inactive)

[Q] Using the record for `O=C(O)C#Cc1cccc2ccccc12` , report its binding (percent of control).
[A] 97.7% (inactive)

[Q] I'd like to know its binding (percent of control). The compound in question is `CN(CCOc1ccccc1)C(=O)c1cc(-c2ccco2)nc2ccccc12`
[A] 105% (inactive)

[Q] Given `O=C(COc1ccc(Cl)cc1)N1CCN(S(=O)(=O)c2ccc(Cl)cc2)CC1` , state its recorded binding (percent of control).
[A] 66.4% (active)

[Q] Request the reported binding (percent of control) associated with `COc1cccc(/C=N\Nc2nncc(-c3ccccc3)n2)c1`
[A] 90.1% (active)

[Q] Requested field: binding (percent of control). Item: `Cc1ccc(S(=O)(=O)/N=C2\C=C(NS(=O)(=O)c3ccc(C)cc3)C(=O)c3ccccc32)cc1`
[A] 97.2% (inactive)

[Q] Fill in: binding (percent of control) of `COc1ccc(NC(=O)CN(C)C(=O)c2cc(-c3ccc(C)o3)nc3ccccc23)cc1` is ___
[A] 96.9% (inactive)

[Q] Report binding (percent of control) for `Cc1cc(C)c2cc(C#N)c(N3CCNCC3)nc2c1` please.
[A] 105% (inactive)

[Q] Using the record for `CC(=O)Nc1c(-c2ccc(C)cc2)nc2ccc(Cl)cn12` , report its binding (percent of control).
[A] 98.5% (inactive)

[Q] Using the record for `COc1ccc(-n2cc(CN(C)Cc3n[nH]c(=O)[nH]3)c(-c3cccc(F)c3)n2)cc1` , report its binding (percent of control).
[A] 103% (inactive)

[Q] What value of binding (percent of control) has been reported for the following compound? `Cc1ccc(C(=O)OCC(=O)NC2CCCCCCC2)cc1C`
[A] 97% (inactive)
